From: PubChem BioAssay (NCATS)

experiment: qHTS of pediatric cancer cell lines to identify multiple opportunities for drug repurposing: Primary screen for BT-37 cells (AID 1347094); conditions: BT-37 viability, CellTiter-Glo luminescence, 48 h; series mostly up to 57.3 µM;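 further: plate controls were DMSO for no effect and bortezomib for full effect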
Records with an inconclusive call do not appear. Activity calls are given as the source filed them. The call rests on the fitted dose curve; in most records, active means well fitted cell-killing curve with a large enough effect; inconclusive means small, poorly fitted or top-dose-only effect; inactive means flat fitted curve, though single readings scatter.
measurement-type: outcome

Consider the worked cases shown below.
Summary for this compound, CNc1c2c(nn1C)CCCC2 : outcome is inactive

Summary for this compound, CC(C)NC[C@@H](O)COc1ccc(CC(N)=O)cc1 : outcome is inactive

Summary for this compound, CC[C@H](C)[C@H](N)C(=O)O : outcome is inactive

Summary for this compound, Cc1cc(O)cc(C)c1Cl : outcome is inactive

Summary for this compound, O=C(O)c1cc(=O)c2ccccc2o1 : outcome is inactive

Summary for this compound, Cc1cc(C)c(NC(=O)CN(CC(=O)O)CC(=O)O)c(C)c1Br : outcome is inactive

Next:
Summary for this compound, O=C(c1ccccc1)C(O)c1ccccc1 (stereo not drawn) : outcome is inactive

Summary for this compound, CCOC(N)=O : outcome is inactive

====

Target: Glucocorticoid receptor (Homo sapiens)
Experiment: qHTS assay for small molecule agonists of glucocorticoid receptor signaling (AID 588532);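 further: 100% = dexamethasone at 0.1 µM and 0% = DMSO only wells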
Settings: HeLa MMTV-bla, beta-lactamase ratio, agonist, 18 h; stronger effect = higher value; percent of dexamethasone control, DMSO zero
Excerpt: NIH Chemical Genomics Center [NCGC] U.S. Environmental Protection Agency [EPA] National Institutes of Environmental Health Sciences [NIEHS] National Toxicology Program [NTP] […] NCGC Assay Protocol Summary Using a beta-lactamase reporter-gene under control of glucocorticoid response element (GRE), a cell-based assay [CellSensor MMTV-bla HeLa cell line assay developed by Invitrogen] was used to measure GR ligands signaling. […] Detection; Fluorescence; Envision plate reader
Inconclusive results are not listed.
measurement-type: activation (%)
State just the number; it will be interpreted in %.

Summary for this compound, O=C(OOC(=O)c1ccccc1)c1ccccc1 : activation is 6.15

Summary for this compound, CC(=O)NS(=O)(=O)c1ccc(N)cc1 : activation is -1.25

Summary for this compound, CC1CC(OC(=O)c2ccccc2O)CC(C)(C)C1 (stereo not given) : activation is 2.49

Summary for this compound, CC(=O)Nc1ccc(C(=O)O)cc1 : activation is -0.936

Summary for this compound, CC(=O)Nc1ccccc1 : activation is -0.909

Summary for this compound, CCCCCCCCCCCCCCCCCCO : activation is -8.91

Summary for this compound, O=C1C(c2[nH]c3ccccc3c2O)=Nc2ccccc21 : activation is 5.37

Summary for this compound, CCCCOC(=O)c1ccc(N)cc1 : activation is -4.26

Summary for this compound, Cc1ccc(C(C)C)c(O)c1 : activation is -10.5

Summary for this compound, Cc1cc(=O)[nH]c(=S)[nH]1 : activation is -0.999

====

assay: qHTS profiling for inhibitors of Plasmodium falciparum proliferation (AID 504749);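 further: 0% = DMSO vehicle and full inhibition = artemisinin control; nearly all actives have a fitted effect of over 60% in size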; conditions: P. falciparum in erythrocytes, SYBR Green DNA, 72 h; at 28.7 µM (top of the series); parasite line B
Records with an inconclusive call do not appear. Where a SMILES comes first, the peptide text is derived from it. Bridges are numbered along the chain shown (N, C = ends). [ ]: non-standard residue; d: D form. hArg = N=C(N)NCCCC[C@H](N)C(=O)O; Mpa = O=C(O)CCS
measurement-type: activity, negative = inhibition (%)
State just the number; it will be interpreted in %.

Summary for this compound, Nc1ccc(C(=O)Oc2ccccc2)c(O)c1 : activity, negative = inhibition is 5.45

Summary for this compound, Cc1ccc(S(=O)(=O)NC(=O)NC2CCCCC2)cc1 : activity, negative = inhibition is 5.26

Summary for this compound, CC(=O)N[C@@H](Cc1ccc(O)cc1)C(=O)O : activity, negative = inhibition is 9.16

Summary for this compound, NNc1nnc(NN)c2ccccc12 : activity, negative = inhibition is 18.1

Summary for this compound, NS(=O)(=O)c1ccc(C(=O)O)cc1 : activity, negative = inhibition is 11.1

Summary for this compound, O=C(NCCCN1CCOCC1)c1ccc(Cl)cc1 : activity, negative = inhibition is 5.99

Summary for this compound, C=CCNC(N)=S : activity, negative = inhibition is -1.15

Summary for this compound, CCCCCC(C)N (stereo unspecified) : activity, negative = inhibition is -25.4

Summary for this compound, CCN(CC)S(=O)(=O)c1ccc(C(=O)O)cc1 : activity, negative = inhibition is 20.6

Summary for this compound, CC(=O)N(CC(O)CO)c1c(I)c(C(=O)NCC(O)CO)c(I)c(C(=O)NCC(O)CO)c1I (stereo unspecified) : activity, negative = inhibition is 5.34

Summary for this compound, CC1CC(OC(=O)c2ccccc2O)CC(C)(C)C1 (stereo unspecified) : activity, negative = inhibition is 14.6

Summary for this compound, CC(=O)OC[C@H]1O[C@@](COC(C)=O)(O[C@H]2O[C@H](COC(C)=O)[C@@H](OC(C)=O)[C@H](OC(C)=O)[C@H]2OC(C)=O)[C@@H](OC(C)=O)[C@@H]1OC(C)=O : activity, negative = inhibition is 21.3

Summary for this compound, NC(=O)CCCCC1CCSS1 (stereo unspecified) : activity, negative = inhibition is -4.11

Summary for this compound, Cc1c(C)c2c(c(C)c1OC(=O)c1cccnc1)CC[C@@](C)(CCC[C@H](C)CCC[C@H](C)CCCC(C)C)O2 : activity, negative = inhibition is -2.45

Summary for this compound, NC(=O)[C@@H]1CSSCCC(=O)N[C@@H](CCCCN=C(N)N)C(=O)NCC(=O)N[C@@H](CC(=O)O)C(=O)N[C@@H](Cc2c[nH]c3ccccc23)C(=O)N2CCC[C@H]2C(=O)N1 ([Mpa][hArg]GDWPC-NH2; disulfide 1-7) : activity, negative = inhibition is 11.6

Summary for this compound, CCOC(N)=O : activity, negative = inhibition is 9.69

Summary for this compound, CC(=O)NS(=O)(=O)c1ccc(N)cc1 : activity, negative = inhibition is 10.5

Summary for this compound, CC(=O)Nc1ccccc1 : activity, negative = inhibition is -0.613

Summary for this compound, Nc1ccc(S(=O)(=O)c2ccc(N)cc2)cc1 : activity, negative = inhibition is 7.07

Summary for this compound, O=C(O)c1ccccc1OP(=O)(O)O : activity, negative = inhibition is 6.75

Summary for this compound, COC(=O)c1ccc(O)cc1 : activity, negative = inhibition is 9.44

Summary for this compound, CC(=O)Oc1cccc(O)c1 : activity, negative = inhibition is 12.6

Summary for this compound, Cc1c(C(=O)NCCO)[n+](=O)c2ccccc2n1[O-] : activity, negative = inhibition is -1.36

Summary for this compound, CNCc1ccccc1 : activity, negative = inhibition is 15.3

Summary for this compound, Cc1cc(O)cc(C)c1Cl : activity, negative = inhibition is -4.56

Summary for this compound, O=C(O)Cn1c(C(=O)Nc2nc(-c3ccccc3Cl)cs2)cc2ccccc21 : activity, negative = inhibition is 5.81

Summary for this compound, CCCOC(=O)c1ccc(N)cc1 : activity, negative = inhibition is 6.95

Summary for this compound, O=c1[nH]cnc2nc[nH]c12 : activity, negative = inhibition is 15.5

Summary for this compound, Nc1ccncc1N : activity, negative = inhibition is 5.99

Summary for this compound, O=C(O)c1ccc[n+]([O-])c1 : activity, negative = inhibition is 10.2

Summary for this compound, COc1cc(O)cc(O)c1 : activity, negative = inhibition is -8.81

Summary for this compound, C[C@@H](N)C(=O)O : activity, negative = inhibition is 15.6

Summary for this compound, CC(=O)OCC(COC(C)=O)OC(C)=O : activity, negative = inhibition is 8.38

Summary for this compound, Cc1c(N(C)C)c(=O)n(-c2ccccc2)n1C : activity, negative = inhibition is 18.1

Summary for this compound, NS(=O)(=O)c1ccc(NC(=O)CCC(=O)O)cc1 : activity, negative = inhibition is 7.64

Summary for this compound, CC(C)CCCC(C)CCCC(C)CCCCC(C)CCCC(C)CCCC(C)C (stereo unspecified) : activity, negative = inhibition is 17.5

Summary for this compound, O=C(O)CNC(=O)c1ccccc1I : activity, negative = inhibition is 11.3

Summary for this compound, O=C(O)CCC(=O)O : activity, negative = inhibition is 13.7

Summary for this compound, OCc1ccc(Cl)cc1Cl : activity, negative = inhibition is -17.4

Summary for this compound, O=S1(=O)OC(c2ccc(O)cc2)(c2ccc(O)cc2)c2ccccc21 : activity, negative = inhibition is 7

Summary for this compound, CCCCOC(=O)c1ccc(N)cc1 : activity, negative = inhibition is 10.8

Summary for this compound, O=C(CN1CCNCC1)NC1CCCCC1 : activity, negative = inhibition is 4.23

Summary for this compound, COc1nccnc1NS(=O)(=O)c1ccc(N)cc1 : activity, negative = inhibition is -0.327

Summary for this compound, O=C1c2ccccc2S(=O)(=O)N1CCCCN1CCN(c2ncccn2)CC1 : activity, negative = inhibition is 25.9

Summary for this compound, C[C@@H]1O[C@@H](OC[C@H]2O[C@@H](Oc3c(-c4ccc(O)c(O)c4)oc4cc(O)cc(O)c4c3=O)[C@H](O)[C@@H](O)[C@@H]2O)[C@H](O)[C@H](O)[C@H]1O : activity, negative = inhibition is 8.33

Summary for this compound, OC[C@@H](O)[C@@H](O)[C@H](O)[C@H](O)CO : activity, negative = inhibition is 7.16

Summary for this compound, CCCCCCCC(=O)OCC(O)CO (stereo unspecified) : activity, negative = inhibition is -8.07

Summary for this compound, COc1ccc(C(=O)N2CCN(CC(=O)N3CCOCC3)CC2)cc1 : activity, negative = inhibition is 20.6

Summary for this compound, O=C(O)Cc1cn(-c2ccccc2)nc1-c1ccc(Cl)cc1 : activity, negative = inhibition is 9.39

Summary for this compound, CC(=O)NCc1c(I)c(NC(C)=O)c(I)c(C(=O)O)c1I : activity, negative = inhibition is 6.96

Summary for this compound, CN(C/C=C/C#CC(C)(C)C)Cc1cccc2ccccc12 : activity, negative = inhibition is -6.19
